Molecular target: human plasma BuChE (Homo sapiens)
Construct: human plasma BuChE; from tissue; host or cells: human plasma
Sequence (P06276 29-602): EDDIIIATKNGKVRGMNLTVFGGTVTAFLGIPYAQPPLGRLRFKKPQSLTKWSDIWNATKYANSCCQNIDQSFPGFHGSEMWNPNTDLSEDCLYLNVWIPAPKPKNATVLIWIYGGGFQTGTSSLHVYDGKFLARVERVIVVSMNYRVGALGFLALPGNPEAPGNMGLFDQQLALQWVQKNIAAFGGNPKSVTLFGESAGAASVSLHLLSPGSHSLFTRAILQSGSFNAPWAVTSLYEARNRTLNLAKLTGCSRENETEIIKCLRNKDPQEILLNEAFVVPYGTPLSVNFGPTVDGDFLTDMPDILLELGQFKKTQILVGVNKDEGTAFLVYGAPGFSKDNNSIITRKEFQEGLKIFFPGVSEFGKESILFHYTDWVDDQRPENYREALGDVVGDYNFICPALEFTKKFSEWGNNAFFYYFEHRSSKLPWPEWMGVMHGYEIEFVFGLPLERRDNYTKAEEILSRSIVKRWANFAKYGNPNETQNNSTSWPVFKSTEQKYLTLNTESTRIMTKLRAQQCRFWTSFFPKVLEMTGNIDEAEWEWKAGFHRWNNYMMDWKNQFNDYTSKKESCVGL
Test: In vitro inhibition of human plasma BuChE (Table 3)
Assay type: biochemical
Settings: human plasma BuChE, n = 4-8, read-out: BuChE IC50 (μM) ± s.e.
Where a name gives a salt, the structure may show the parent alone.
Each entry below carries its recorded IC50.
Give just the numeric value; µM need not be written.

Some compounds with known IC50 results, for comparison:
Report IC50 for Cc1ccccc1NC(=O)Oc1ccc2c(c1)[C@]1(C)CCN(C)OC1N2C (stereo partly shown) [CHF 2822, hydrochloride] please.
0.18

Can you look up the measured IC50 of Cc1cccc(NC(=O)Oc2ccc3c(c2)[C@]2(C)CCN(C)OC2N3C)c1 (stereo partly shown) [CHF 2957, hydrochloride] for me?
134

Look at this compound and give its reported IC50. CCc1ccccc1NC(=O)Oc1ccc2c(c1)[C@]1(C)CCN(C)OC1N2C (stereo partly shown) [CHF 2819, hydrochloride]
55.2

New cases:
Which IC50 value belongs to CCCCCCCNC(=O)Oc1ccc2c(c1)[C@]1(C)CCN(C)OC1N2C (stereo partly shown) [CHF 2060, hydrochloride, reference compound] ?
0.005
